- Test system: HeLa
- Assay name: Cytotoxicity against human HeLa cells after 72 hrs by MTT assay
- Type: functional, cell-based
- Conditions: Homo sapiens, HeLa, 72 h; read-out: IC50
Strictly below 100 µM in IC50: rule met. Otherwise: rule not met.

Inquiry: Record `COc1ccc(Nc2cc(-c3cccc(C(F)(F)F)c3)ccn2)cc1` : is its IC50 strictly below 100 µM?
Reply text: rule not met

Inquiry: Record `COc1ccc(Nc2ccc3ccccc3n2)cc1` : is its IC50 strictly below 100 µM?
Reply text: rule met

Inquiry: Record `COc1ccc(Nc2cc(-c3ccc(C)cc3)ccn2)cc1` : is its IC50 strictly below 100 µM?
Reply text: rule met

Inquiry: Record `COc1ccc(Nc2c(-c3ccccc3)cnc3ccccc23)cc1` : is its IC50 strictly below 100 µM?
Reply text: rule met

Entry source: ChEMBL document CHEMBL2069279
